B1: DNA topoisomerase 3-alpha, residues 812 to 851; numbered along this chain, Q13472 (parent)
chain: TCNCGQEAVLLTVRKEGPNRGRQFFKCNGGSCNFFLWADS

Variants of: B1
Experiment: abundance fitness (aPCA) (normalised: wild type 0, dead -1); higher = more abundant; growth selection in yeast, the domain comes from the species named
Conditions: Homo sapiens
MET means recorded abundance fitness is -0.3 or above; NOT MET means it is below -0.3.

Q: Determine whether measured abundance fitness meets or exceeds -0.3 for TCNCGQEAVLLTVRKEGPNRGRQFFGCNGGSCNFFLWADS [K26G]
Ans: MET

Q: Hello, I need to know if TCNCGQEAVLLTVRKEGPNRGRQFFKCNGGGCNFFLWADS [S31G] has measured abundance fitness not below -0.3. Thanks!
Ans: MET

Q: Decide: is the reported value of abundance fitness for TCNCGQEAVLLTVRKEGPNRGRQFFKCNGGSCNFFLWAGS [D39G] equal to or greater than -0.3?
Ans: MET

Q: Determine whether this variant has abundance fitness no lower than -0.3: TCNCGQEAVLLTVCKEGPNRGRQFFKCNGGSCNFFLWADS [R14C]
Ans: MET

Q: Exam item: decide whether the reported abundance fitness for TCNCGQEAVLLEVRKEGPNRGRQFFKCNGGSCNFFLWADS [T12E] is at least -0.3.
Ans: NOT MET

Q: Does the variant TGNCGQEAVLLTVRKEGPNRGRQFFKCNGGSCNFFLWADS [C2G] have recorded abundance fitness that is -0.3 or more?
Ans: NOT MET

Q: Identify whether the reported abundance fitness of the following variant is -0.3 or greater: TCNCGQEAVLLTVRKEGPNRGRQFFKRNGGSCNFFLWADS [C27R]
Ans: NOT MET

Q: Please indicate if the recorded abundance fitness for TCNCGQEAVLLTVRKEGPNHGRQFFKCNGGSCNFFLWADS [R20H] meets or exceeds -0.3.
Ans: MET

Q: Item TCNCGQEAVLLTVRKEGPNRGRQFFKCNGGSSNFFLWADS [C32S] with abundance fitness of -0.3 or above?
Ans: NOT MET

Q: Check the entry TCNCGQEAVLLTVRKEGANRGRQFFKCNGGSCNFFLWADS [P18A] : does abundance fitness equal or exceed -0.3?
Ans: MET

Q: Quick check, abundance fitness >= -0.3? TCNCGQEAVLLTVRKEGRNRGRQFFKCNGGSCNFFLWADS [P18R]
Ans: MET

Q: abundance fitness >= -0.3 for TCNCGQEAVLLTVRKNGPNRGRQFFKCNGGSCNFFLWADS [E16N] ?
Ans: MET

Q: Test whether the variant TCNCGQEAVLLTVRKEGPNRGRQFFKCNGGSCNFFFWADS [L36F] records abundance fitness of -0.3 or higher.
Ans: MET

Q: Could you tell me if the measured abundance fitness of TCNCGQEAVLLTVRKEGPTRGRQFFKCNGGSCNFFLWADS [N19T] reaches -0.3 or more?
Ans: MET

Q: Check this variant for abundance fitness at or above -0.3: TCNCGQEAVLLTVRKEGPNRGRQFFKCNGGSCNFFLGADS [W37G]
Ans: NOT MET

Q: # check: abundance fitness of TCNCGQEAVLLTVRKEGPNRGRDFFKCNGGSCNFFLWADS [Q23D] is greater than or equal to -0.3
Ans: MET

Q: State whether the measured abundance fitness reaches -0.3, counting equality as reaching it, for TCNCGQEAVLLTVRKEGPNRGRQFFKCNGGSCNFFLWDDS [A38D]
Ans: NOT MET

Q: Form field: abundance fitness at least -0.3? Entry: TCNCGQEAVLLTVRKEGPNRGRQFFKCNGGSCNFFAWADS [L36A]
Ans: MET

Q: Form field: abundance fitness at least -0.3? Entry: TCNCGQEDVLLTVRKEGPNRGRQFFKCNGGSCNFFLWADS [A8D]
Ans: NOT MET

Q: abundance fitness >= -0.3 for TCNCGQEAVLLTVRKEGPNRGRQFFKCNGGQCNFFLWADS [S31Q] ?
Ans: MET

Q: Kindly determine if abundance fitness recorded for TCNCGQEAVLLTVRKGGPNRGRQFFKCNGGSCNFFLWADS [E16G] is above or exactly -0.3.
Ans: MET

Q: Reported abundance fitness reaches at least -0.3 for TCLCGQEAVLLTVRKEGPNRGRQFFKCNGGSCNFFLWADS [N3L] ?
Ans: NOT MET

Q: Exam item: decide whether the reported abundance fitness for TCNCGQEAVLLTVRKEGPNRGRQFFKCNGGWCNFFLWADS [S31W] is at least -0.3.
Ans: MET

Q: Determine whether measured abundance fitness meets or exceeds -0.3 for TCNCGQEAVLLTVRKEGPNRGRQFFKCNGGSCSFFLWADS [N33S]
Ans: MET

Q: Check the entry TCNCGQEAVLLCVRKEGPNRGRQFFKCNGGSCNFFLWADS [T12C] : does abundance fitness equal or exceed -0.3?
Ans: NOT MET

Q: Confirm if abundance fitness reported for the variant TCNCGQEAVLLTVRKEGPARGRQFFKCNGGSCNFFLWADS [N19A] is -0.3 or above.
Ans: NOT MET

Q: Does the reported abundance fitness for TCNCGQEAVLLYVRKEGPNRGRQFFKCNGGSCNFFLWADS [T12Y] fall at or above the -0.3 mark?
Ans: NOT MET

Q: Reported abundance fitness reaches at least -0.3 for TCNCVQEAVLLTVRKEGPNRGRQFFKCNGGSCNFFLWADS [G5V] ?
Ans: NOT MET

Q: Evaluate TCNCGQEAVLLTVREEGPNRGRQFFKCNGGSCNFFLWADS [K15E] : abundance fitness at minimum -0.3?
Ans: MET

Q: Check if abundance fitness >= -0.3 (inclusive). Item: TCNCGQEAVLLTVRFEGPNRGRQFFKCNGGSCNFFLWADS [K15F]
Ans: MET

Q: Decide: is the reported value of abundance fitness for TCNCGQEAVLLTVRKEGPNRGRQFFKCNGGTCNFFLWADS [S31T] equal to or greater than -0.3?
Ans: MET

Q: Answer whether abundance fitness of TCNCGQEAVLLTVRKEGPNRGRQFFKCNGGSCNFFLRADS [W37R] is greater than or equal to -0.3.
Ans: NOT MET

Q: Is it the case that TCNCGQEAVLLTVRKEGPNRGRQFFKGNGGSCNFFLWADS [C27G] has abundance fitness reaching or exceeding -0.3?
Ans: NOT MET

Q: Does abundance fitness meet or surpass -0.3 for TCNCGQEAVLLTVRKEGPNRGRQFFKCNGGSCGFFLWADS [N33G] ?
Ans: MET

Q: Decide: is the reported value of abundance fitness for TCNCGQEAVLLTVPKEGPNRGRQFFKCNGGSCNFFLWADS [R14P] equal to or greater than -0.3?
Ans: NOT MET

Q: I'd appreciate it if you could say whether TCNCGQEAVLLTVRKKGPNRGRQFFKCNGGSCNFFLWADS [E16K] has abundance fitness at least equal to -0.3.
Ans: MET

Q: hey, is abundance fitness for this one >= -0.3? TCNCGQEAVLLTVRKEGPNRGRQFFKCVGGSCNFFLWADS [N28V]
Ans: MET

Q: abundance fitness >= -0.3 for TCNCGQEAVLLTVRKEGPGRGRQFFKCNGGSCNFFLWADS [N19G] ?
Ans: NOT MET

Q: Decide: is the reported value of abundance fitness for TCNCGQEAVLLTVRKEGPNYGRQFFKCNGGSCNFFLWADS [R20Y] equal to or greater than -0.3?
Ans: MET

Q: Assess whether reported abundance fitness for TCNCGQEAVLLTVRKEGWNRGRQFFKCNGGSCNFFLWADS [P18W] sits at -0.3 or higher.
Ans: NOT MET

Q: Test whether the variant TCNCGQEAVLLTVRKEGPNRGRQFFCCNGGSCNFFLWADS [K26C] records abundance fitness of -0.3 or higher.
Ans: MET

Q: Dear colleague, could you confirm whether TCNCGQEAVLLTVRKEGPNRGRQFFKCNGGSCNFFLWAPS [D39P] has abundance fitness at or above -0.3?
Ans: MET

Q: Hi, just wondering whether TCNCGQEAVLLTVRKEGPNRGRQFFKCNRGSCNFFLWADS [G29R] shows abundance fitness of -0.3 or higher.
Ans: MET

Q: Evaluate TCNCGQEAVLLTVRKEGPNRGRQFFKCNGGSCNFFLAADS [W37A] : abundance fitness at minimum -0.3?
Ans: NOT MET

Q: Hi team, for TCNCGQEAVLLTVRKCGPNRGRQFFKCNGGSCNFFLWADS [E16C] , is the recorded abundance fitness at or above -0.3?
Ans: NOT MET

Data provenance is the Human Domainome abundance scans (Beltran et al. 2025).
